molecular target: Dimer of Gag-Pol polyprotein [501-599,Q508K,L534I,L564I,C568A,C596A] (Human immunodeficiency virus 1, UniProt P03367, C568A/C596A/L534I/L564I/Q508K); construct: 501-599; assay: Protease Inhibition Assay; settings: pH 6.4; 25 °C
measured parameter: Ki (nM)
Give bare numbers, in nM.

molecule: O=C(N[C@@H](Cc1ccccc1)[C@H](O)CN1CCCCCCCCCCCCC(c2ccccc2)OC1=O)O[C@H]1CO[C@H]2OCC[C@H]21 (some centres undefined)
measured parameter: Ki
number: 268
--
molecule: O=C(N[C@@H](Cc1ccccc1)[C@H](O)CN1CCCCCCCCC=CCCOC1=O)O[C@H]1CO[C@H]2OCC[C@H]21
measured parameter: Ki
number: 88
--
molecule: O=C(N[C@@H](Cc1ccccc1)[C@H](O)CN1CCCCCCCCCCCOC1=O)O[C@H]1CO[C@H]2OCC[C@H]21
measured parameter: Ki
number: 80

Now for a further molecule.
QUERY: Supply reported Ki belonging to this molecule: CC1CCCCCCCCCCOC(=O)N(C[C@@H](O)[C@H](Cc2ccccc2)NC(=O)O[C@H]2CO[C@H]3OCC[C@H]32)C1 (some centres undefined)
RESULT: 6.1

Just for reference, BindingDB's records for doi:10.1016/s0960-894x(02)00300-1 is where these values come from.
